Values from ChEMBL document CHEMBL4513216

Attribute: cytotoxicity at 10 µM
Assay: Toxicity liver stage against HepG2, at 10uM
Format: cell-based
Design: test concentration 10 uM, cell line HepG2-A16-CD81EGFP
Settings: human, HepG2-A16-CD81EGFP cells; read-out: INHIBITION
Field: numeric (%). Do not append units.

COc1c(Br)c(C(=O)NC2CC2)nn1C: 3.18
Cc1csc(N2CCN(C(=O)C(C(C)C)n3cncn3)CC2)n1 (stereo unspecified): -13.1
Cc1ncc(CNC(=O)NCC(C)Oc2ccccc2F)s1 (stereo unspecified): -7.16
Cc1ccc(CN(CCCn2ccnc2)Cc2cnc(N(C)C)nc2)s1: -12.6
COC(=O)CC1CCN(C(=O)c2ccccc2-n2nnnc2C)CC1: -7.27

Exercise: Report measured cytotoxicity at 10 µM; entry is CC(C)Nc1ncnc2c1CCN(Cc1nccn1C)CC2
Solution: 0.507
